- System: SF-268 CNS
- assay protocol: NCI-60 one-dose screen, 48 h (100 = growth as untreated, 0 = no growth, -100 = all killed)
- condition info: 10 µM unless noted
About 83,000 compounds went through this panel and 20% of them were active in at least one assay; those are over-represented in the sample as a whole.
Overview of reported growth across a group of compounds:
Expressed in %, but write only the number.

{"compound": "COc1ccc(/C=C/C(=O)c2cc(S(N)(=O)=O)c(OC)cc2OC)cc1", "tested system": "SF-268 CNS", "growth [%]": 80.7}

So for N#Cc1c(-c2cccs2)cc(-c2cnccn2)nc1SCC(=O)c1ccc(F)cc1 , the logged growth turned out to be 84.7

# growth of Cc1ccc(NC(=O)N[C@@H](Cc2cc(F)cc(F)c2)C(=O)NC2C(=O)N3C[C@H](O)C[C@H]3C(=O)N3CCCC[C@H]3C(=O)N[C@@H](CO)C(=O)N3C[C@H](C)C[C@H]3C(=O)O[C@H]2C)c(F)c1 (stereo partly drawn) = 35.5

The recorded growth for Clc1ccc(N/N=c2/oc3ccccc3cc2-c2cc3ccccc3[nH]2)cc1 is 85.1

For record COc1c(N2CC3CCCNC3C2)c(F)cc2c(=O)c(C(=O)N/N=C/c3ccc4c(c3)OCO4)cn(C3CC3)c12 (stereo not drawn) the listed growth is 79.4

So, Cc1nc(-c2ccccc2O)ccc1C(=O)N=Nc1c(O)[nH]c2ccc(Br)cc12 ? Its growth was 96.7

GET /value?item= COc1c(N2CC3CCCNC3C2)c(F)cc2c(=O)c(C(=O)N/N=C/c3c[nH]c4ccccc34)cn(C3CC3)c12 (stereo not drawn) &field=growth returns 91.9

get_value(item= Cc1[nH]c(C(=O)Nc2ccccc2OCc2cccc(C(=O)N3CCC[C@@H](N)C3)c2)c(Cl)c1Cl , readout=growth) returns -66.9
